binders and their reported ratio of IC50 to that of the control peptide
target: T1, HLA-DRB1*0401 (human); assay: competitive MHC class II binding assay; competitor: control peptide Influenza haemagglutinin 307-319;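 further: each peptide was tested for its capacity to displace a known reference binder from human MHC class II allotypes, and its IC50 is expressed relative to that of the reference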
T1 construct: human MHC class II allotype
Kindly answer with a numeric value in ratio, unit omitted.

Completed entries (count: 4):
Per the records, this binder ( RGKPFQLEAVFEANQNT [HDM21B] ) has ratio of IC50 to that of the control peptide equal to 0.78

Record summary for HDDVVSMEYDLAYKL [HDM39A] : reported ratio of IC50 to that of the control peptide = 76.2

Consider EAVFEANQNTKTAK [HDM22A] . Its measured ratio of IC50 to that of the control peptide is 329

Entry KPFQLEAVFEANQNT [HDM21] ; ratio of IC50 to that of the control peptide = 11.2

Others:
In plain terms, KPFQLEAVFEANQNTK [HDM21A] has a documented ratio of IC50 to that of the control peptide of 52.2
